test: A549 lung cancer cell viability effects, profiling panel, resazurin fluorescence, 24 h, PK04 Diversity Set (AID 1171); details: higher = more signal, called active from +8 up or from −8 down; note: test concentration not given here
Tag: met if measured z-score is not below 0.2, not met if it is.

>  <structureString>
O=C1O[C@@H](c2ccccc2)[C@@H](c2ccccc2)N2[C@@H](c3ccccc3OCCO)[C@]3(C(=O)Nc4ccc(C#CC5=CCCCC5)cc43)[C@@H](C(=O)N3CCCCCCC3)[C@H]12

>  <category>
not met

$$$$
>  <structureString>
CC(C)[Si](C#Cc1ccc(Oc2ccccc2)cc1)(O[Si](C#Cc1ccc(Oc2ccccc2)cc1)(C(C)C)C(C)C)C(C)C

>  <category>
not met

$$$$
>  <structureString>
CC(C)C(=C=CC[C@@H](O)c1ccc(OCCO)cc1)C[C@@H](O)c1ccccn1

>  <category>
not met

$$$$
>  <structureString>
C=CCOC(=O)[C@H]1[C@@H]2C(=O)O[C@@H](c3ccccc3)[C@@H](c3ccccc3)N2[C@@H](c2ccc(OCCOC(=O)[C@@H]3C[C@@H]4C(=O)N[C@@H](CC(C)C)C(=O)N4[C@@H]3c3ccc(O)cc3)cc2)[C@]12C(=O)Nc1ccccc12

>  <category>
met

$$$$
>  <structureString>
CC(C)(C)OC(=O)CC[C@]1(C(=O)N2CCOCC2)N=C(c2ccc(OCCCO)cc2)O[C@H]1c1ccccc1N=[N+]=[N-]

>  <category>
met

$$$$

Now consider the entry below.
Exercise: Has O=C1c2ccccc2[C@](Cc2ccccc2I)(C(=O)NCCN2CCOCC2)[C@H](c2ccc(CO)cc2)N1C1CCCCC1 a recorded z-score greater than or equal to 0.2?
Key: not met
